// provenance: patent US20220396626A1

Quick list: EC50 per entry.
Biological target: T1, human CLL1 on the surface of transfected cells (HEK293-CLL1; HEK-293T membrane proteome array) (human, UniProt Q5QGZ9 1-265)
T1 construct: whole, on cells; also called HEK293-CLL1 cells; CLL1 target antigen
T1 sequence (looked up): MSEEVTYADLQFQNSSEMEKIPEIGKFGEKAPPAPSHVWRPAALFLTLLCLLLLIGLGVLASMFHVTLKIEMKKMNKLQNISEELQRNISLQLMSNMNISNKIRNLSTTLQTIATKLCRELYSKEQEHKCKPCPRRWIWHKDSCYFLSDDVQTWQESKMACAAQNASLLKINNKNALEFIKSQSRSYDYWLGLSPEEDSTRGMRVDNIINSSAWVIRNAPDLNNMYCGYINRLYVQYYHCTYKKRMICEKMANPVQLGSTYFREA
Test: flow cytometry on HEK293 cells overexpressing CLL1
REPORTED_PROPERTY: EC50

# BINDER, RESULT
rows = [
    ("chimeric antibody ch27H4 (antibody, V domains shown, also called parent antibody) VH: EVQLQQSGPELVKPGASVKISCKASGYSFTGYHMHWVKQSHVKSLEWIGRINPYNGAASHNQKFKDKATLTVDKSSSTAYMELHSLTSEDSAVYYCARGWDYDGGYYAMDYWGQGTSVTVSS VL: DIVMSQSPSSLAVSVGEKVTMSCKSSQSLLYSDNQKNYLAWYQQKPGQSPKLLIYWASTRESGVPDRFTGSGSGTDFTLTISSVKAEDLAVYYCQQYYTYPYTFGGGTKLEIK", "0.358 µg/mL"),
    ("humanized antibody hz27H4H1L1 (antibody, V domains shown, Heavy chain variable region hz27H4H1 with light chain variable region hz27H4L1; also called h27H4H1L1 (complete antibody)) VH: EVQLVQSGAEVKKPGASVKVSCKASGYTFTGYHMHWVRQAPGQRLEWMGRINPYNGAASHNQKFKDRVTITRDTSASTAYMELSSLRSEDTAVYYCARGWDYDGGYYAMDYWGQGTLVTVSS VL: DIQMTQSPSSLSASVGDRVTITCKSSQSLLYSDNQKNYLAWYQQKPGKAPKLLIYWASTRESGVPSRFSGSGSGTDFTLTISSLQPEDFATYYCQQYYTYPYTFGQGTKLEIK", "0.262 µg/mL"),
    ("humanized antibody hz27H4H1L2 (antibody, V domains shown, Heavy chain variable region hz27H4H1 with light chain variable region hz27H4L2; also called h27H4H1L2 (complete antibody)) VH: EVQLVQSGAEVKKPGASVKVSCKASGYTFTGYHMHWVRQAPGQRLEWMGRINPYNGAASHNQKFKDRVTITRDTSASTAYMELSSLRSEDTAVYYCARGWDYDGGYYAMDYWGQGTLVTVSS VL: DIVMTQSPLSLPVTPGEPASISCKSSQSLLYSDNQKNYLAWYLQKPGQSPQLLIYWASTRESGVPDRFSGSGSGTDFTLKISRVEAEDVGVYYCQQYYTYPYTFGQGTKLEIK", "0.321 µg/mL"),
    ("anti-human CLL-1 control antibody 1075.7 (antibody, it was captured by anti-human IgG sensors and detected with anti-human IgG-Fc, so a human Fc was present; also called ch1075.7) scFv: ENVLTQSPAIMSASPGEKVTMTCRASSNVISSYVHWYQQRSGASPKLWIYSTSNLASGVPARFSGSGSGTSYSLTISSVEAEDAATYYCQQYSGYPLTFGAGTKLELGGGGSGGGGSGGGGSDIQLQESGPGLVKPSQSLSLTCSVTGYSITSAYYWNWIRQFPGNKLEWMGYISYDGRNNYNPSLKNRISITRDTSKNQFFLKLNSVTTEDTATYYCAKEGDYDVGNYYAMDYWGQGTSVTVSS", "0.245 µg/mL"),
]
